These entries and their values trace back to paper PMC6766848.

Target protein (sequence): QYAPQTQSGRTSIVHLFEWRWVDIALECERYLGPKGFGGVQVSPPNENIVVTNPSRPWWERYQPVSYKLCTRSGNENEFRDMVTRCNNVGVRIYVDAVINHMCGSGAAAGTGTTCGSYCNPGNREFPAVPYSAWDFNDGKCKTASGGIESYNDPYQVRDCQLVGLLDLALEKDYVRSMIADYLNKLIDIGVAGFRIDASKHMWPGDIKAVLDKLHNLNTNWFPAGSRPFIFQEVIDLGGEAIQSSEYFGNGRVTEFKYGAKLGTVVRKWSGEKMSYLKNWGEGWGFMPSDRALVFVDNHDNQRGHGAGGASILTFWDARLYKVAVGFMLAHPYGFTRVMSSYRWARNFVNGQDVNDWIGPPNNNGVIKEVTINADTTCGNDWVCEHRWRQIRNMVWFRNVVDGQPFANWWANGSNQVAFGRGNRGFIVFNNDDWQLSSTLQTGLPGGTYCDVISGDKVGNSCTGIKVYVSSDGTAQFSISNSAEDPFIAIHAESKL
Measured Ki accompanies every entry in the list below.
Report the figure in µM without appending any unit label.

[[record]]
molecule = "Oc1ccc([C@H]2Oc3ccc(/C=C/c4cc(O)cc(O)c4)cc3[C@@H]2c2cc(O)cc(O)c2)cc1 [(S, S)-trans-δ-viniferin]"
numeric_readout = 58


Below: the item to evaluate.
The molecule listed as Oc1ccc([C@@H]2Oc3ccc(/C=C/c4cc(O)cc(O)c4)cc3[C@H]2c2cc(O)cc(O)c2)cc1 [(R, R)-trans-δ-viniferin] has a reported Ki of 43
